Molecular target: Cdk4/cyclin D1 (Homo sapiens, UniProt P11802)
Sequence (P11802 whole entry, species assumed): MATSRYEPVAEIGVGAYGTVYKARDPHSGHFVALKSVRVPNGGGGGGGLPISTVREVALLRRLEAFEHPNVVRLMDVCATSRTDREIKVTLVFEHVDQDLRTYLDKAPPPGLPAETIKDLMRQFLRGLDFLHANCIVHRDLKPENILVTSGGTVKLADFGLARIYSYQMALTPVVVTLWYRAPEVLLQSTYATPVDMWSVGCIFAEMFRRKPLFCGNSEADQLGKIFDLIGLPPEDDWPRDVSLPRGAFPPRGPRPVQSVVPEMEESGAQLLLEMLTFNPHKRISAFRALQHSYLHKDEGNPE
Sequence (P24385 whole entry partner, species assumed): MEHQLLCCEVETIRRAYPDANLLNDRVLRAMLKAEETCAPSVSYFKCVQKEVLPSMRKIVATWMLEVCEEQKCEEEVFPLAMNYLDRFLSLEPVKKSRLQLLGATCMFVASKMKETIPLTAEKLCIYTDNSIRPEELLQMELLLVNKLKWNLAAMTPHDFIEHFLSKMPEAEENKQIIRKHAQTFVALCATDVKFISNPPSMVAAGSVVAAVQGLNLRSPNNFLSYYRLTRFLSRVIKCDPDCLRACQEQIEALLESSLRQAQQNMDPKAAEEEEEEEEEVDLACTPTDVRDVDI
Assay: Biochemical kinase assay Cdk4/cyclin D1
Conditions: Table 6
ASSAY METRIC: IC50

| MOLECULE | ASSAY METRIC | MEASURED RESULT |
| --- | --- | --- |
| CC(C)c1nn(-c2c(Cl)cccc2Cl)c2nc(Cc3ccc(NS(=O)(=O)CCCN4CCOCC4)cc3)[nH]c(=O)c12 [Compound A30] | IC50 | < 1000 nM |
| O=C(Nc1cccc2c1C(=O)c1c(-c3ccc(OCCN4CCOCC4)c(F)c3)n[nH]c1-2)NN1CCOCC1 [Compound A27] | IC50 | < 100 nM |
| CC(C)c1nn(-c2c(Cl)cc(Cl)cc2Cl)c2nc(Cc3ccc(CN4CCCC4)n3C)[nH]c(=O)c12 [Compound A43] | IC50 | < 1000 nM |
| CC(C)c1nn(-c2c(Cl)cccc2Cl)c2nc(Cc3ccc(O)cc3)[nH]c(=O)c12 [Compound A4] | IC50 | < 100 nM |
| CCN1CCN(S(=O)(=O)c2cc(Cl)c(-n3nc(C(C)C)c4c(=O)[nH]c(Cc5ccc(OCCN6CCOCC6)cc5)nc43)c(Cl)c2)CC1 [Compound A53] | IC50 | < 10000 nM |
| CC(C)c1nn(-c2c(Cl)cccc2Cl)c2nc(Cc3ccc(OCCO)cc3)[nH]c(=O)c12 [Compound A59] | IC50 | < 1000 nM |
| CC(C)C(N)C(=O)OCCN1CCN(NC(=O)Nc2cccc3c2C(=O)c2c-3n[nH]c2-c2ccc(OCCN3CCCC3)cc2)CC1 (stereo not shown) [Compound A33] | IC50 | < 100 nM |

====

Biological target: Cdc2/cyclin B (Homo sapiens)
Sequence (P06493 whole entry, species assumed): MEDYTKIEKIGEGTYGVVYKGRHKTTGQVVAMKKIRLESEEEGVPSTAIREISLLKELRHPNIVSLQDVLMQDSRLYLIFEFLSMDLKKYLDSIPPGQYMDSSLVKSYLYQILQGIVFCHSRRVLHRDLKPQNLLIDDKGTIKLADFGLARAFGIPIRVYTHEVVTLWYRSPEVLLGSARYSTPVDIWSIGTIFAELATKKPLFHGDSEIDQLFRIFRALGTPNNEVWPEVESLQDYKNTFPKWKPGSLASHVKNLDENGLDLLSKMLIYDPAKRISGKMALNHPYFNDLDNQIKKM
Sequence (P14635 whole entry partner, species assumed): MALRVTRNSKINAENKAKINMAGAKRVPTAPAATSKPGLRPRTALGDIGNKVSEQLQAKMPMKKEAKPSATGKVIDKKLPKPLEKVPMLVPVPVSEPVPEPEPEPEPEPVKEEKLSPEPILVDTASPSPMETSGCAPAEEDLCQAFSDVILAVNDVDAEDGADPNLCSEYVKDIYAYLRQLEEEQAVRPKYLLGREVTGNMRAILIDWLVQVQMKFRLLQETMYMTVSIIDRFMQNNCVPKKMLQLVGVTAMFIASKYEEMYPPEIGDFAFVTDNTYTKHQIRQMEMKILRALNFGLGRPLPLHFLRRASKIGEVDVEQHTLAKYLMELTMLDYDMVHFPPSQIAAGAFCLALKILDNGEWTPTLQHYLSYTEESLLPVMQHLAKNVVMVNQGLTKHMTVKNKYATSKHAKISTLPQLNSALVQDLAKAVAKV
Assay: Biochemical kinase assay Cdc2/cyclin B
Settings: Table 6
pIC50: −log10 of the molar value.
ASSAY METRIC: pIC50

| COMPOUND | ASSAY METRIC | MEASURED RESULT |
| --- | --- | --- |
| COCCN1CCN(Cc2ccc(-c3[nH]nc4c3C(=O)c3c(NC(=O)NN5CCOCC5)cccc3-4)cc2)CC1.Cl.Cl [Compound B16, dihydrochloride] | pIC50 | > 8.00 |
| Cc1nc(Cc2nc3c(c(C(C)C)nn3-c3c(Cl)cccc3Cl)c(=O)[nH]2)cs1 | pIC50 | > 5.00 |
| O=C(Nc1cccc2c1C(=O)c1c-2n[nH]c1-c1ccc(OCCN2CCOCC2)cc1)NN1CCOCC1 | pIC50 | > 7.00 |
| O=C(Nc1cccc2c1C(=O)c1c-2n[nH]c1-c1ccc(S(=O)(=O)N2CCNCC2)cc1)NN1CCOCC1 | pIC50 | > 7.00 |
| Cc1cc(OCCn2cccn2)ccc1-c1[nH]nc2c1C(=O)c1c(NC(=O)NN3CCN(C)CC3)cccc1-2 | pIC50 | > 7.00 |
| CC(C)c1nn(-c2c(Cl)cccc2Cl)c2nc(Cc3ccc(CN4CCN(C(C)C)CC4)c(O)c3)[nH]c(=O)c12 | pIC50 | > 6.00 |
| CCOC(=O)CN1CCN(NC(=O)Nc2cccc3c2C(=O)c2c-3n[nH]c2-c2ccc(OCCN3CCCC3)cc2)CC1 | pIC50 | > 7.00 |
| O=C(O)COc1ccc(-c2n[nH]c3c2C(=O)c2c(NC(=O)NN4CCOCC4)cccc2-3)cc1 | pIC50 | > 7.00 |
| O=C(Nc1cccc2c1C(=O)c1c(-c3ccc(OCc4nnn[nH]4)cc3)n[nH]c1-2)NN1CCOCC1 | pIC50 | > 7.00 |
| Cc1cc(OCCN2CCCCC2)ccc1-c1[nH]nc2c1C(=O)c1c(NC(=O)NN3CCN(C)CC3)cccc1-2 | pIC50 | > 7.00 |
| CCOC(=O)COc1ccc(-c2[nH]nc3c2C(=O)c2c(NC(=O)NN4CCOCC4)cccc2-3)cc1 | pIC50 | > 8.00 |
| COc1ccc(Cc2nc3c(c(C(C)C)nn3-c3c(Cl)cccc3Cl)c(=O)[nH]2)cc1 | pIC50 | > 7.00 |
| O=C(Nc1cccc2c1C(=O)c1c(-c3ccc(CNCc4cccnc4)cc3)n[nH]c1-2)NN1CCOCC1 | pIC50 | > 7.00 |
| CC(C)c1nn(-c2c(Cl)cc(Cl)cc2Cl)c2nc(Cc3ccc(NS(=O)(=O)CCCN4CCCCC4)cc3)[nH]c(=O)c12 | pIC50 | > 6.00 |
| CC(C)c1nn(-c2c(Cl)cc(Cl)cc2Cl)c2nc(Cc3ccc(NS(=O)(=O)CCCN4CCCC4)cc3)[nH]c(=O)c12 | pIC50 | > 6.00 |
| CC(C)N1CCN(C(=O)COc2ccc(-c3[nH]nc4c3C(=O)c3c(NC(=O)NN5CCOCC5)cccc3-4)cc2)CC1.Cl | pIC50 | > 7.00 |
| CN1CCN(NC(=O)Nc2cccc3c2C(=O)c2c(-c4ccc(OCCN5CCCC5)c(F)c4)n[nH]c2-3)CC1 | pIC50 | > 7.00 |
| CN1CCN(Cc2ccc(-c3n[nH]c4c3C(=O)c3c(NC(=O)NN5CCOCC5)cccc3-4)cc2)CC1 | pIC50 | > 7.00 |
| CCOC(=O)C1CCN(Cc2ccc(-c3n[nH]c4c3C(=O)c3c(NC(=O)NN5CCOCC5)cccc3-4)cc2)CC1 | pIC50 | > 7.00 |
| CC(C)c1nn(-c2c(Cl)cc(Cl)cc2Cl)c2nc(Cc3ccc(OCCO)cc3)[nH]c(=O)c12 | pIC50 | > 7.00 |
| Cc1noc(COc2ccc(-c3[nH]nc4c3C(=O)c3c(NC(=O)NN5CCOCC5)cccc3-4)cc2)n1 | pIC50 | > 8.00 |
| CC(C)c1nn(-c2c(Cl)cccc2Cl)c2nc(Cc3ccc(OCCN4CCOCC4)c(O)c3)[nH]c(=O)c12 | pIC50 | > 6.00 |
| CC(C)N1CCN(CCOc2ccc(-c3n[nH]c4c3C(=O)c3c(NC(=O)NN5CCOCC5)cccc3-4)cc2F)CC1 | pIC50 | > 7.00 |
| Cc1cc(OCCCN2CCN(C(C)C)CC2)ccc1-c1[nH]nc2c1C(=O)c1c(NC(=O)NN3CCOCC3)cccc1-2 | pIC50 | > 7.00 |
| CC(C)N1CCN(NC(=O)Nc2cccc3c2C(=O)c2c-3n[nH]c2-c2ccc(OCCN3CCCC3)cc2)CC1 | pIC50 | > 7.00 |
| O=C(Nc1cccc2c1C(=O)c1c(-c3ccc(CNCCO)cc3)n[nH]c1-2)NN1CCOCC1 | pIC50 | > 7.00 |
| CN1CCN(NC(=O)Nc2cccc3c2C(=O)c2c(-c4ccc(OCCN5CCCC5)cc4F)n[nH]c2-3)CC1 | pIC50 | > 7.00 |
| CC(C)c1nn(-c2c(Cl)cccc2Cl)c2nc(Cc3ccc(OCCO)cc3)[nH]c(=O)c12 | pIC50 | > 7.00 |

Origin of measurements: patent US7605175B2
